Target: T1, human LAG-3 expressed on cells (human, UniProt P18627 23-525)
T1 construct: whole, on cells; Treated as one protein; the host cell is named under assay; also called LAG-3-expressing CHO cells; LAG-3-transfected CHO cells
T1 sequence (looked up): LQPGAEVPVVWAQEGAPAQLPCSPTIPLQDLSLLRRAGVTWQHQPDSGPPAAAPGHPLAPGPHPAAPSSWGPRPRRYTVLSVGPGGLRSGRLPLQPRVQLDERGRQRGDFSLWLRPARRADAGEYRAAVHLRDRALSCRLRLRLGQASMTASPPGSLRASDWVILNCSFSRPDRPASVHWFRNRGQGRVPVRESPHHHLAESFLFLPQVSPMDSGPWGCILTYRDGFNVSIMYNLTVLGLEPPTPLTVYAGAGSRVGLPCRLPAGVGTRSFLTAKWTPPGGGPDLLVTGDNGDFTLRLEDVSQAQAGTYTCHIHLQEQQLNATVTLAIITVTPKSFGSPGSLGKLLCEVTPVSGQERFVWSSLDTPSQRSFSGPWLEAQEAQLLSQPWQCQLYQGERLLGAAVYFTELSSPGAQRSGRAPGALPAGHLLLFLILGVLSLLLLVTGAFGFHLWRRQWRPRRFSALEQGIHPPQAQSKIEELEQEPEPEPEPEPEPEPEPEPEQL
Test: FACS competition: serial dilutions of the test mAb against a constant concentration of FITC-labeled murine BAP050 on LAG-3-expressing CHO cells; MFI of bound labelled mAb

BINDER	binding result
BAP050-hum09-Ser (antibody, human IgG4 S228P, kappa, V domains shown, C84S in VHFW3 of BAP050-hum09; IgG4(S228P)/kappa; also called clone No. 9S; huBAP050(Ser) clone) VH: QVQLVQSGAEVKKPGASVKVSCKASGFTLTNYGMNWVRQARGQRLEWIGWINTDTGEPTYADDFKGRFVFSLDTSVSTAYLQISSLKAEDTAVYYCARNPPYYYGTNNAEAMDYWGQGTTVTVSS VL: DIQMTQSPSSLSASVGDRVTITCSSSQDISNYLNWYQQKPGKAPKLLIYYTSTLHLGIPPRFSGSGYGTDFTLTINNIESEDAAYYFCQQYYNLPWTFGQGTKVEIKR	binds
BAP050-hum12-Ser (antibody, human IgG4 S228P, kappa, V domains shown, C84S in VHFW3 of BAP050-hum12; IgG4(S228P)/kappa; also called huBAP050(Ser) clone) VH: QVQLVQSGAEVKKPGASVKVSCKASGFTLTNYGMNWVRQARGQRLEWIGWINTDTGEPTYADDFKGRFVFSLDTSVSTAYLQISSLKAEDTAVYYCARNPPYYYGTNNAEAMDYWGQGTTVTVSS VL: EIVLTQSPDFQSVTPKEKVTITCSSSQDISNYLNWYQQKPGQAPRLLIYYTSTLHLGVPSRFSGSGSGTDFTLTISSLQPEDFATYYCQQYYNLPWTFGQGTKVEIKR	binds

Data origin: patent US20180340025A1
